protocol.text: Pharmacokinetics in mice, intravenous administration
Format: in vivo, male C57/BL6 mice
assay.setup: male, C57/BL6, mouse, plasma, iv, 10 mg/kg
measurement.type: CLint scaled (mL/min/kg)
Form entry: value (mL/min/kg) — number only.

Please review the entries below; each comes with its answer.
compound	measurement.type	observed.measurement
C[C@@H]1CC[C@H]2[C@@H](C)C(=O)N[C@@H]3O[C@@]4(C)CC[C@@H]1[C@]32OO4	CLint scaled	577
C[C@H]1[C@H](NS(N)(=O)=O)O[C@@H]2O[C@@]3(C)CC[C@H]4[C@H](C)CC[C@@H]1[C@@]24OO3 [Sulfamide 7]	CLint scaled	189
C[C@H]1[C@H](N2CCSCC2)O[C@@H]2O[C@@]3(C)CC[C@H]4[C@H](C)CC[C@@H]1[C@@]24OO3 [Artemiside 5, artemiside]	CLint scaled	674
C[C@H]1[C@H](N2CCN(C(=O)Nc3ccc(F)cc3)CC2)O[C@@H]2O[C@@]3(C)CC[C@H]4[C@H](C)CC[C@@H]1[C@@]24OO3	CLint scaled	2940
C[C@H]1[C@H](N2CCS(=O)(=O)CC2)O[C@@H]2O[C@@]3(C)CC[C@H]4[C@H](C)CC[C@@H]1[C@@]24OO3	CLint scaled	302

IN: CLint scaled lookup needed for CO[C@H]1O[C@@H]2O[C@@]3(C)CC[C@H]4[C@H](C)CC[C@@H]([C@H]1C)[C@@]24OO3 , thanks.
OUT: 855

====

protocol.text: Pharmacokinetics in mice, intravenous administration
Format: in vivo, male C57/BL6 mice
assay.setup: i.v. 10 mg/kg, volume of distribution during elimination phase
measurement.type: V (L/kg)
Form entry: value (L/kg) — number only.

Please review the entries below; each comes with its answer.
molecule	V, L/kg
CO[C@H]1O[C@@H]2O[C@@]3(C)CC[C@H]4[C@H](C)CC[C@@H]([C@H]1C)[C@@]24OO3	14.1
C[C@@H]1CC[C@H]2[C@@H](C)C(=O)N[C@@H]3O[C@@]4(C)CC[C@@H]1[C@]32OO4	19.4
C[C@H]1[C@H](NS(N)(=O)=O)O[C@@H]2O[C@@]3(C)CC[C@H]4[C@H](C)CC[C@@H]1[C@@]24OO3 [Sulfamide 7]	1.63

IN: V lookup needed for C[C@H]1[C@H](N2CCS(=O)(=O)CC2)O[C@@H]2O[C@@]3(C)CC[C@H]4[C@H](C)CC[C@@H]1[C@@]24OO3 , thanks.
OUT: 1.9

IN: V lookup needed for C[C@H]1[C@H](N2CCN(C(=O)Nc3ccc(F)cc3)CC2)O[C@@H]2O[C@@]3(C)CC[C@H]4[C@H](C)CC[C@@H]1[C@@]24OO3 , thanks.
OUT: 6.92

IN: V lookup needed for C[C@H]1[C@H](N2CCSCC2)O[C@@H]2O[C@@]3(C)CC[C@H]4[C@H](C)CC[C@@H]1[C@@]24OO3 [Artemiside 5, artemiside] , thanks.
OUT: 24.3

====

protocol.text: Pharmacokinetics in mice, oral administration
Type: in vivo, male C57/BL6 mice
assay.setup: male, C57/BL6, mouse, plasma, oral, 50 mg/kg, oral bioavailability, p.o. 50 mg/kg vs i.v. 10 mg/kg
measurement.type: bioavailability (%)
Form entry: value (%) — number only.

IN: bioavailability lookup needed for C[C@@H]1CC[C@H]2[C@@H](C)C(=O)N[C@@H]3O[C@@]4(C)CC[C@@H]1[C@]32OO4 [11-Aza-artemisinin 11, 11-aza-artemisinin] , thanks.
OUT: 7
